Test name: photoluminescence quantum yield (fraction); solvent given as SMILES
Setup conditions: in ClCCl
Our labelling divides records by photoluminescence quantum yield into ranges: class 0: < 0.1; class 1: ≥ 0.1 and < 0.6; class 2: ≥ 0.6

* COc1ccccc1C1=[N+]2C(=C(c3ccccc3)c3c4ccccc4c(-c4ccccc4OC)n3[B-]2(F)F)c2ccccc21 | class 2
* CCN(CC)c1ccc2cc(C#N)/c(=N\C(C)=O)oc2c1 | class 2
* CN(C)c1ccc(C2=Nc3scc(-c4ccc(N(C)C)cc4)[n+]3[B-](F)(F)O2)cc1 | class 0
* c1ccc(-c2c3c(c(-c4ccccc4)c4cc5ccccc5cc24)Cc2c(c(-c4ccccc4)c4cc5ccccc5cc4c2-c2ccccc2)C3)cc1 | class 1
* N#Cc1cc(-c2ccc(/C=C/c3ccc(N(c4ccccc4)c4ccccc4)cc3)c(C#N)c2)ccc1/C=C/c1ccc(N(c2ccccc2)c2ccccc2)cc1 | class 1

Now examine the next entry.
Place this molecule in its band: "COc1cc2c(cc1OC)C1=C[C@H](c3ccc(Cl)cc3)C3(C(C#N)=C(C#N)N1CC2)c1cc(Br)ccc1-c1ccc(Br)cc13"
class 0

###

Test name: photoluminescence quantum yield (fraction); solvent given as SMILES
Setup conditions: in ClCCl
Task for the reader: assign each of the following compounds its reported photoluminescence quantum yield.
Answers are plain numbers.

- CCCCn1c(-c2ccc(-c3nnc(-c4cccs4)o3)cc2)nc(-c2ccccc2)c1-c1ccccc1: 0.33
- CN(C)c1ccc(C2=Nc3sc4ccccc4[n+]3[B-](F)(F)O2)cc1: 0.77
- C(#Cc1ccc(-n2c3ccccc3c3ccccc32)cc1)c1ccc(-c2nc(-c3ccc(C#Cc4ccc(-n5c6ccccc6c6ccccc65)cc4)cc3)nc(-c3ccc(C#Cc4ccc(-n5c6ccccc6c6ccccc65)cc4)cc3)n2)cc1: 0.67
- Cc1cc(C)c(C2=C3C=C(c4ccc(C(C)(C)C)cc4)C(c4ccc(C(C)(C)C)cc4)=[N+]3[B-](F)(F)n3c2cc(-c2ccc(C(C)(C)C)cc2)c3-c2ccc(C(C)(C)C)cc2)c(C)c1: 0.74
- Oc1cc(-c2cccs2)ccc1-c1nc2ccccc2s1: 0.0937
- CCCCCCCCCCC1(CCCCCCCCCC)c2cc(-c3nc4ccccc4s3)ccc2-c2ccc(N3C(=O)c4ccc5c6ccc7c8c(ccc(c9ccc(c4c59)C3=O)c86)C(=O)N(c3ccc4c(c3)C(CCCCCCCCCC)(CCCCCCCCCC)c3cc(-c5nc6ccccc6s5)ccc3-4)C7=O)cc21: 0.0025
- COc1cccc2cc(C)c3c4ccccc4n(C)c3c12: 0.215
- COC(=O)c1cc(=O)n(C)c2cc(-c3cc(OC)c(OC)c(OC)c3)sc12: 0.53
- CCCCC(CC)COc1cc(OCC(CC)CCCC)c2c#cc3ccc4oc5ccc(c#cc6cc(c#cc7ccc8oc9ccc(c#cc1c2)cc9c8c7)c(C(CCCC)OCCC)cc6C(CCCC)OCCC)cc5c4c3 (stereo not given): 0.57
- CC1=C(Br)C(C)=[N+]2C1=C(c1c(-c3ccccn3)nc3ccccn13)c1c(C)c(Br)c(C)n1[B-]2(F)F: 0.0641

Could you report photoluminescence quantum yield for every entry in the following list?
1. C(=C\c1ccc(-c2cccc3ccccc23)s1)/c1cccs1
2. CCOC(=O)c1sc(-c2ccc(-c3cc(-c4cccs4)c(C(=O)OCC)s3)s2)cc1-c1cccs1
3. N#C/C(=N/Nc1ccc(C#N)cc1)c1nc(-c2ccccc2)cs1
4. C(=C\c1nc2ccccc2[nH]1)/c1ccc(-c2nc3c4cccnc4c4ncccc4c3[nH]2)cc1
5. c1ccc2cc(-c3c4ccccc4c(-c4ccc(-c5ccc(-n6c7ccccc7c7ccccc76)cc5)cc4)c4ccccc34)ccc2c1

1. 0.25
2. 0.18
3. 0.0001
4. 0.07
5. 0.7
